# A2 (%), amplitude of the slow phase of inactivation on apoA-I rHDL annotations
target: rHDL-apoA-I (reconstituted discoidal HDL particles carrying apolipoprotein A-I)
Outcome Measure: A2 (%), amplitude of the slow phase of inactivation on apoA-I rHDL

{"Protein": "wt rePON1-192K (protein) MAKLTALTLLGLGLALFDGQKSSFQTRFNVHREVTPVELPNCNLVKGVDNGSEDLEILPNGLAFISSGLKYPGIMSFDPDKSGKILLMDLNEEDPVVLELGITGNTLDISSFNPHGISTFTDEDNTVYLLVVNHPDSSSTVEVFKFQEEEKSLLHLKTIRHKLLPSVNDIVAVGPEHFYATNDHYFADPYLKSWEMHLGLAWSFVTYYSPNDVRVVAEGFDFANGINISPDGKYVYIAELLAHKIHVYEKHANWTLTPLKSLDFDTLVDNISVDPVTGDLWVGCHPNGMRIFYYDPKNPPGSEVLRIQDILSEEPKVTVVYAENGTVLQGSTVAAVYKGKLLIGTVFHKALYCEL", "Measured Value": 100}
{"Protein": "rePON1-192R (protein) MAKLTALTLLGLGLALFDGQKSSFQTRFNVHREVTPVELPNCNLVKGVDNGSEDLEILPNGLAFISSGLKYPGIMSFDPDKSGKILLMDLNEEDPVVLELGITGNTLDISSFNPHGISTFTDEDNTVYLLVVNHPDSSSTVEVFKFQEEEKSLLHLKTIRHKLLPSVNDIVAVGPEHFYATNDHYFADPYLRSWEMHLGLAWSFVTYYSPNDVRVVAEGFDFANGINISPDGKYVYIAELLAHKIHVYEKHANWTLTPLKSLDFDTLVDNISVDPVTGDLWVGCHPNGMRIFYYDPKNPPGSEVLRIQDILSEEPKVTVVYAENGTVLQGSTVAAVYKGKLLIGTVFHKALYCEL", "Measured Value": 90}
{"Protein": "human PON1-192R (protein) AKLIALTLLGMGLALFRNHQSSYQTRLNALREVQPVELPNCNLVKGIETGSEDLEILPNGLAFISSGLKYPGIKSFNPNSPGKILLMDLNEEDPTVLELGITGSKFDVSSFNPHGISTFTDEDNAMYLLVVNHPDAKSTVELFKFQEEEKSLLHLKTIRHKLLPNLNDIVAVGPEHFYGTNDHYFLDPYLRSWEMYLGLAWSYVVYYSPSEVRVVAEGFDFANGINISPDGKYVYIAELLAHKIHVYEKHANWTLTPLKSLDFNTLVDNISVDPETGDLWVGCHPNGMKIFFYDSENPPASEVLRIQNILTEEPKVTQVYAENGTVLQGSTVASVYKGKLLIGTVFHKALYCEL", "Measured Value": 87}
{"Protein": "rePON1-192Q (protein) MAKLTALTLLGLGLALFDGQKSSFQTRFNVHREVTPVELPNCNLVKGVDNGSEDLEILPNGLAFISSGLKYPGIMSFDPDKSGKILLMDLNEEDPVVLELGITGNTLDISSFNPHGISTFTDEDNTVYLLVVNHPDSSSTVEVFKFQEEEKSLLHLKTIRHKLLPSVNDIVAVGPEHFYATNDHYFADPYLQSWEMHLGLAWSFVTYYSPNDVRVVAEGFDFANGINISPDGKYVYIAELLAHKIHVYEKHANWTLTPLKSLDFDTLVDNISVDPVTGDLWVGCHPNGMRIFYYDPKNPPGSEVLRIQDILSEEPKVTVVYAENGTVLQGSTVAAVYKGKLLIGTVFHKALYCEL", "Measured Value": 70}
{"Protein": "human PON1-192Q (protein) AKLIALTLLGMGLALFRNHQSSYQTRLNALREVQPVELPNCNLVKGIETGSEDLEILPNGLAFISSGLKYPGIKSFNPNSPGKILLMDLNEEDPTVLELGITGSKFDVSSFNPHGISTFTDEDNAMYLLVVNHPDAKSTVELFKFQEEEKSLLHLKTIRHKLLPNLNDIVAVGPEHFYGTNDHYFLDPYLQSWEMYLGLAWSYVVYYSPSEVRVVAEGFDFANGINISPDGKYVYIAELLAHKIHVYEKHANWTLTPLKSLDFNTLVDNISVDPETGDLWVGCHPNGMKIFFYDSENPPASEVLRIQNILTEEPKVTQVYAENGTVLQGSTVASVYKGKLLIGTVFHKALYCEL", "Measured Value": 72}
